# credit: ChEMBL document CHEMBL4706664

testedSystem: Broad substrate specificity ATP-binding cassette transporter ABCG2 (Homo sapiens, UniProt Q9UNQ0)
Sequence (Q9UNQ0 whole entry): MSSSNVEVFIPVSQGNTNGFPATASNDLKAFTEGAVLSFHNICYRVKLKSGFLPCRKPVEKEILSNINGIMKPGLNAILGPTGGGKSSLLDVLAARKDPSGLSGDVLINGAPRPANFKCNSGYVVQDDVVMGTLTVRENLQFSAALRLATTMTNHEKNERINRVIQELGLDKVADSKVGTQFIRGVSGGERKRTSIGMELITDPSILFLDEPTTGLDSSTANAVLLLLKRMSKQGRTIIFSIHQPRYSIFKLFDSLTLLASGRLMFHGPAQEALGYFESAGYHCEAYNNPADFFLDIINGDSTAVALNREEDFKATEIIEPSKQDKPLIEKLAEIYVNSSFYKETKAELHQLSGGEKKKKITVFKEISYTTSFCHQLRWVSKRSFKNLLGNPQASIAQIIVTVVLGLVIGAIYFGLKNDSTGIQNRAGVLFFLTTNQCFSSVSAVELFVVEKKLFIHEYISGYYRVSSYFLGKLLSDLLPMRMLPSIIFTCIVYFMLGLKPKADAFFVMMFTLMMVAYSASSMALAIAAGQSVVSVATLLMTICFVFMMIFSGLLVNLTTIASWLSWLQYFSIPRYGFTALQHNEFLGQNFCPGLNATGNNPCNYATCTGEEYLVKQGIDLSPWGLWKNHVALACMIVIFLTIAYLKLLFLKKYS
measurementDescription: Inhibition of ABCG2 (unknown origin) expressed in MDCK-II cells assessed as reduction in pheophorbide A efflux measured after 2 hrs by flow cytometry
propertyLabel: IC50 (nM)
Use nM as the unit, but write only the number.

Examples from the recorded data:
[
  {
    "structure": "N#Cc1ccc(Nc2cc(NCc3ccncc3)nc(-c3ccccc3)n2)cc1",
    "valueUnit": "nM",
    "IC50": 435
  },
  {
    "structure": "N#Cc1ccc(Nc2cc(Nc3ccc(C#N)cc3)nc(-c3ccccc3)n2)cc1",
    "valueUnit": "nM",
    "IC50": 133
  },
  {
    "structure": "N#Cc1ccc(Nc2cc(Nc3ccc(O)cc3)nc(-c3ccccc3)n2)cc1",
    "valueUnit": "nM",
    "IC50": 387
  },
  {
    "structure": "N#Cc1ccc(Nc2cc(NCc3cccnc3)nc(-c3ccccc3)n2)cc1",
    "valueUnit": "nM",
    "IC50": 373
  },
  {
    "structure": "Cc1cc(Nc2ccc(C#N)cc2)nc(-c2ccccc2)n1",
    "valueUnit": "nM",
    "IC50": 189
  },
  {
    "structure": "N#Cc1ccc(Nc2cc(NCc3ccccn3)nc(-c3ccccc3)n2)cc1",
    "valueUnit": "nM",
    "IC50": 210
  }
]

Query :: In one line, give reported IC50 of the entry CNc1cc(Nc2ccc(C#N)cc2)nc(-c2ccccc2)n1 .
Result :: 141

Query :: Give IC50 for the following compound: N#Cc1ccc(Nc2cc(NCCCc3ccccc3)nc(-c3ccccc3)n2)cc1
Result :: 96
